EXPERIMENTAL_DETAILS: Binding affinity to 5'-CTAACTGAATG-3'/3'-GATTGACTTAC-5' duplex DNA (unknown origin) in sodium cacodylate buffer assessed as change in melting temperature at 10 uM at pH 7
MEASUREMENT_NAME: ΔTm (°C)

a. O=C(CCNCCC(=O)Nc1ccc2ccc3cccnc3c2n1)Nc1ccc2ccccc2n1
b. O=C(CCNCCC(=O)Nc1ccc2ccc3cccnc3c2n1)Nc1ccc2ccc3cccnc3c2n1
# query: argmin of ΔTm over a and b Returns: label corresponding to the selected item.
a
(a: -0.1 °C, b: 0.4 °C)

P. O=C(CCNCCC(=O)Nc1ccc2ccccc2n1)Nc1ccc2ccccc2n1
Q. NCCC(=O)Nc1ccc2ccc3cccnc3c2n1
# query: argmin of ΔTm over P and Q Returns: label corresponding to the selected item.
P
(P: -0.1 °C, Q: 0.9 °C)

* * *

EXPERIMENTAL_DETAILS: Binding affinity to 5'-CTAACCGAATG-3'/3'-GATTGGCTTAC-5' duplex DNA (unknown origin) in sodium cacodylate buffer assessed as change in melting temperature at 10 uM at pH 7
MEASUREMENT_NAME: ΔTm (°C)

A selection of reference data follows.
Which ΔTm is listed for `O=C(CCNCCC(=O)Nc1ccc2ccc3cccnc3c2n1)Nc1ccc2ccc3cccnc3c2n1` ?
0.3

Which ΔTm is listed for `O=C(CCNCCC(=O)Nc1ccc2ccccc2n1)Nc1ccc2ccccc2n1` ?
0.2

P. O=C(CCNCCC(=O)Nc1ccc2ccc3cccnc3c2n1)Nc1ccc2ccccc2n1
Q. NCCC(=O)Nc1ccc2ccc3cccnc3c2n1
# query: argmin of ΔTm over P and Q Returns: label corresponding to the selected item.
P

* * *

EXPERIMENTAL_DETAILS: Binding affinity to 5'-CTAACAGAATG-3'/3'-GATTGCCTTAC-5' duplex DNA (unknown origin) in sodium cacodylate buffer assessed as change in melting temperature at 10 uM at pH 7
MEASUREMENT_NAME: ΔTm (°C)

A. NCCC(=O)Nc1ccc2ccc3cccnc3c2n1
B. O=C(CCNCCC(=O)Nc1ccc2ccc3cccnc3c2n1)Nc1ccc2ccc3cccnc3c2n1
# query: argmin of ΔTm over A and B Returns: label corresponding to the selected item.
A
(A: 0.5 °C, B: 4.4 °C)

1. O=C(CCNCCC(=O)Nc1ccc2ccc3cccnc3c2n1)Nc1ccc2ccccc2n1
2. O=C(CCNCCC(=O)Nc1ccc2ccccc2n1)Nc1ccc2ccccc2n1
# query: argmin of ΔTm over 1 and 2 Returns: label corresponding to the selected item.
1

* * *

EXPERIMENTAL_DETAILS: Binding affinity to 5'-CTAACGGAATG-3'/3'-GATTGGCTTAC-5' duplex DNA (unknown origin) in sodium cacodylate buffer assessed as change in melting temperature at 10 uM at pH 7
MEASUREMENT_NAME: ΔTm (°C)

A selection of reference data follows.
Which ΔTm is listed for `O=C(CCNCCC(=O)Nc1ccc2ccc3cccnc3c2n1)Nc1ccc2ccc3cccnc3c2n1` ?
1.4

Which ΔTm is listed for `O=C(CCNCCC(=O)Nc1ccc2ccc3cccnc3c2n1)Nc1ccc2ccccc2n1` ?
0.3

P. NCCC(=O)Nc1ccc2ccc3cccnc3c2n1
Q. O=C(CCNCCC(=O)Nc1ccc2ccccc2n1)Nc1ccc2ccccc2n1
# query: argmin of ΔTm over P and Q Returns: label corresponding to the selected item.
Q

* * *

EXPERIMENTAL_DETAILS: Binding affinity to 5'-CTAACTGAATG-3'/3'-GATTGGCTTAC-5' duplex DNA (unknown origin) in sodium cacodylate buffer assessed as change in melting temperature at 10 uM at pH 7
MEASUREMENT_NAME: ΔTm (°C)

Which ΔTm is listed for `NCCC(=O)Nc1ccc2ccc3cccnc3c2n1` ?
1.3

I. O=C(CCNCCC(=O)Nc1ccc2ccc3cccnc3c2n1)Nc1ccc2ccc3cccnc3c2n1
II. O=C(CCNCCC(=O)Nc1ccc2ccccc2n1)Nc1ccc2ccccc2n1
III. O=C(CCNCCC(=O)Nc1ccc2ccc3cccnc3c2n1)Nc1ccc2ccccc2n1
I would appreciate it if you could sort these 3 molecules by ΔTm, starting from the smallest number. In your reply, arrange the labels in the requested order.
II, III, I
(II: -0.5 °C, III: 0.1 °C, I: 0.3 °C)
